B1: Tudor domain-containing protein 3, residues 554 to 611; numbered along this chain, Q9H7E2 (parent)
chain: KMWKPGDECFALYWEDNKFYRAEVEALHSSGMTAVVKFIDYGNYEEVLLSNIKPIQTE

Variants of: B1
Method Description: abundance fitness (aPCA) (normalised: wild type 0, dead -1); higher = more abundant; growth selection in yeast, the domain comes from the species named
Measurement Setup: Homo sapiens
In this section we review reported abundance fitness values for a set of variants.
Attribute Measured: abundance fitness

# Mutant, Measured Value
measured = [
    ("G42K", -0.407),
    ("D16C", -0.961),
    ("N51F", -1.02),
    ("V36R", -0.88),
    ("R21P", -0.206),
    ("G6T", -0.919),
    ("R21M", -0.506),
    ("K1T", -0.278),
    ("V35M", -0.079),
    ("W3R", -1.01),
    ("Y13D", -0.345),
    ("E58H", -0.304),
    ("E46S", -0.029),
    ("L49Y", -0.464),
    ("V24L", -0.215),
    ("E25H", -0.039),
    ("K53Y", -0.214),
    ("L49N", -1.05),
    ("A22D", -0.93),
    ("I52T", -0.686),
    ("A22G", -0.351),
    ("E15G", -0.142),
]
